system tested: Cytochrome P450 2D6 (Homo sapiens)
Sequence (P10635 whole entry): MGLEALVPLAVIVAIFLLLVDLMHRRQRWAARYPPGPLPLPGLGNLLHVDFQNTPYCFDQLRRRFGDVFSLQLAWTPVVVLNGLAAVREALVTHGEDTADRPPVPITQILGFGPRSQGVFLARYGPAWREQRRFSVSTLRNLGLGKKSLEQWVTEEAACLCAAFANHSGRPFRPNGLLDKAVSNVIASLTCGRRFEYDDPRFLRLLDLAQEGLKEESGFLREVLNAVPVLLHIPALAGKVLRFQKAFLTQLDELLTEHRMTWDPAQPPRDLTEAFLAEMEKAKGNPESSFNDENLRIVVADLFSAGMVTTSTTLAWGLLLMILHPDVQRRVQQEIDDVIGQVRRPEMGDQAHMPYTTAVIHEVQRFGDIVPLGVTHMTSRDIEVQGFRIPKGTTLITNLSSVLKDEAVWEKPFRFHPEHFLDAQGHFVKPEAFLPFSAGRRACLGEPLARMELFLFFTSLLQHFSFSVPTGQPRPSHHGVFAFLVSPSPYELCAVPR
pIC50: −log10 of the molar value.
# cutoff 5 applies to pIC50; >= gives 1 (yes), < gives 0 (no)

See these solved cases before continuing.
>>> label_value("Cc1cccc(C)c1COc1cccn2c(C)c(C)nc12")
"1 (yes)"
>>> label_value("Cc1cccc(C)c1CNc1cccc2c1nc(C)n2C")
"0 (no)"
>>> label_value("Cc1c(C)n(C[C@H]2C[C@@H]2C)c2c(OCc3ccc(F)cc3)nncc12")
"1 (yes)"

For the next question, use this compound.
**Query** // inclusive: pIC50 at least 5? input: Cc1cccc(C)c1CNc1nc(-c2ccccc2)cc2c(C)c(C)[nH]c12
**Result** 1 (yes)

###

Overview of reported chromatographic logD across a group of compounds:
experiment: Chromatographic hydrophobicity index at pH 7.4 by fast gradient HPLC
Assay type: physicochemical
condition info: buffer
Answer with the value's number alone.

Here are 2 compounds together with their reported answers.
>>> result_value("Cc1cccc(C)c1CNc1nccn2c(C)c(C)nc12")
3.4
>>> result_value("Cc1cccc(C)c1CNc1nc(N2CCOCC2=O)cc2c(C)c(C)n(CCO)c12")
2.93

Now for the compound whose chromatographic logD we want.
**Query** Give recorded chromatographic logD. Cc1cccc(C)c1CNc1nc(-c2ccccc2)cc2c(C)c(C)[nH]c12
**Result** 5.31

###

system tested: Cytochrome P450 3A4 (Homo sapiens, UniProt P08684)
Sequence (P08684 whole entry): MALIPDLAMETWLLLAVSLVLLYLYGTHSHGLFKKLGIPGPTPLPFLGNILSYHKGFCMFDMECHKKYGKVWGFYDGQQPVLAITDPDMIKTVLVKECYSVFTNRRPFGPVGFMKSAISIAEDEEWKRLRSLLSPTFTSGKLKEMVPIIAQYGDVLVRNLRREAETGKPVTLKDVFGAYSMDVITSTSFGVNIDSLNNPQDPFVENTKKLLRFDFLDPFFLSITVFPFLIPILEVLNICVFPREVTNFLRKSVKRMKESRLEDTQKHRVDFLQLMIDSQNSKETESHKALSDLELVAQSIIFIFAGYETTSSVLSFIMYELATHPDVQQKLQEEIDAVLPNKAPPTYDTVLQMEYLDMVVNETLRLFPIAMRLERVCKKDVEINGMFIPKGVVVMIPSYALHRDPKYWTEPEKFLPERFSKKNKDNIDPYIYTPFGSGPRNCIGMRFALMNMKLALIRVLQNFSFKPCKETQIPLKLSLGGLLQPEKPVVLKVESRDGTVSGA
experiment: Inhibition of CYP3A4 using 7-benzyloxyquinoline substrate
Type: ADME
So basically: is IC50 under 4 µM? Then Satisfied. Not under? Then Not satisfied.

**Query** Dear reviewer, please state whether Cc1cccc(C)c1CNc1nc(N2CCOCC2=O)cc2c(C)c(C)n(CCO)c12 has IC50 strictly beneath 4 µM.
**Result** Not satisfied

**Query** Please check: IC50 for Cc1cccc(C)c1CNc1nc(-c2ccccc2)cc2c(C)c(C)[nH]c12 , strictly under 4 µM or not?
**Result** Not satisfied

**Query** Strictly below 4 µM: is that where IC50 of Cc1cccc(C)c1CNc1nccc2c1nc(C)n2C sits?
**Result** Not satisfied

###

experiment: Intrinsic clearance in rat liver microsomes
Assay type: ADME, Microsome
A collection of molecules and their measured CLint scaled
# value in mL/min/kg; strip the unit string

Worked cases, CLint scaled given:
>>> result_value("C=CCn1c(C)c(C)c2cc(-n3ccccc3=O)nc(NCc3c(C)cccc3C)c21")
20
>>> result_value("Cc1cccc(C)c1CNc1ncnc2c(C)c(C)[nH]c12")
9
>>> result_value("Cc1cccc(C)c1CNc1cccc2c1nc(C)n2C")
47
>>> result_value("CCn1c(C)c(C)c2cc(-n3ccccc3=O)nc(NCc3c(C)cccc3C)c21")
41
>>> result_value("Cc1cccc(C)c1CNc1nc(-n2ccccc2=O)cc2c(C)c(C)n(CCO)c12")
21.9

**Query** Return CLint scaled for the following molecule: Cc1nc2c(OCc3ccccc3)cccn2c1CC#N
**Result** 8.5

**Query** Provide CLint scaled value for the following molecule: Cc1cccc(C)c1CNc1nc(-n2ccccc2=O)cc2c(C)c(C)[nH]c12
**Result** 2.9

**Query** Return the recorded CLint scaled value; entry: CCc1cccc(C)c1CNc1cc(C(N)=O)cn2c(C)c(C)nc12
**Result** 14

**Query** Name the recorded CLint scaled of the molecule listed here: Cc1cccc(C)c1CNc1nccc2c1nc(C)n2C
**Result** 14

**Query** Recall and state the measured CLint scaled for Cc1cccc(C)c1CNc1nc(N2CCOCC2=O)cc2c(C)c(C)[nH]c12 .
**Result** 4.3

**Query** For the molecule Cc1cccc(C)c1CNc1nc(N2CCOCC2=O)cc2c(C)c(C)n(CCO)c12 , give its measured CLint scaled value.
**Result** 6.5

###

Measured pIC50, listed per entry for reference.
experiment: Inhibition of H+/K+ ATPase at pH 7.4

>>> result_value("Cc1cccc(C)c1CNc1nc(-n2ccccc2=O)cc2c(C)c(C)n(CCO)c12")
6.8
>>> result_value("Cc1cccc(C)c1CNc1nccc2c1nc(C)n2C")
5.3

**Query** Recall and state the measured pIC50 for Cc1cccc(C)c1CNc1nccc2c1cc(C)n2C .
**Result** 6.8

**Query** For the compound CCn1c(C)c(C)c2cc(-n3ccccc3=O)nc(NCc3c(C)cccc3C)c21 , report pIC50.
**Result** 7.4

**Query** Supply pIC50 value. Item: Cc1cccc(C)c1CNc1ccnc2c1cc(C)n2C
**Result** 4.8

**Query** Provide measured pIC50 value, entry: Cc1nc2c(OCc3ccccc3)cccn2c1CC#N
**Result** 7.4

###

Cytochrome P450 2C9 (Homo sapiens, UniProt P11712) measurements of pIC50, listed per entry.
Sequence (P11712 whole entry): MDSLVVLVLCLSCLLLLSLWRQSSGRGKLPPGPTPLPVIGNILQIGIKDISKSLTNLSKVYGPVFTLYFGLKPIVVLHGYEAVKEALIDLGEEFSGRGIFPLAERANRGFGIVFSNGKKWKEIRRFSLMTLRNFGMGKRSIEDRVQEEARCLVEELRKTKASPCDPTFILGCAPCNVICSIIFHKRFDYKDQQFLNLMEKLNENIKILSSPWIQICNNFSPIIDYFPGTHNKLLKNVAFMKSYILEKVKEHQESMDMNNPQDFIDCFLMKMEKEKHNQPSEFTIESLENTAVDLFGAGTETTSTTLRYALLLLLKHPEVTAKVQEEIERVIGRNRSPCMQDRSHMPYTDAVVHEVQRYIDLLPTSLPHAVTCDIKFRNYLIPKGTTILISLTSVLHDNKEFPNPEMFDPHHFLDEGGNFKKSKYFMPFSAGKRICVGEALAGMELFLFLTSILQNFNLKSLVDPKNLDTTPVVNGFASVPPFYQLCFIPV
Conceptually, pIC50 converts a concentration in mol/L into minus its log10.

// below: answered molecules
>>> result_value("Cc1cccc(C)c1CNc1nccc2c1cc(C)n2C")
4.18
>>> result_value("Cc1cccc(C)c1CNc1nc(-n2ccccc2=O)cc2c(C)c(C)[nH]c12")
5.48
>>> result_value("Cc1cccc(C)c1CNc1nc(N2CCOCC2=O)cc2c(C)c(C)n(CCO)c12")
4.89
>>> result_value("C=CCn1c(C)c(C)c2cc(-n3ccccc3=O)nc(NCc3c(C)cccc3C)c21")
6.30
>>> result_value("Cc1cccc(C)c1CNc1nc(-c2cccc(=O)[nH]2)cc2c(C)c(C)[nH]c12")
5.64

Please turn your attention to the following entry.
**Query** Output pIC50 of Cc1cccc(C)c1CNc1cccc2c1nc(C)n2C
**Result** 5.06

###

system tested: Cytochrome P450 1A2 (Homo sapiens, UniProt P05177)
Sequence (P05177 whole entry): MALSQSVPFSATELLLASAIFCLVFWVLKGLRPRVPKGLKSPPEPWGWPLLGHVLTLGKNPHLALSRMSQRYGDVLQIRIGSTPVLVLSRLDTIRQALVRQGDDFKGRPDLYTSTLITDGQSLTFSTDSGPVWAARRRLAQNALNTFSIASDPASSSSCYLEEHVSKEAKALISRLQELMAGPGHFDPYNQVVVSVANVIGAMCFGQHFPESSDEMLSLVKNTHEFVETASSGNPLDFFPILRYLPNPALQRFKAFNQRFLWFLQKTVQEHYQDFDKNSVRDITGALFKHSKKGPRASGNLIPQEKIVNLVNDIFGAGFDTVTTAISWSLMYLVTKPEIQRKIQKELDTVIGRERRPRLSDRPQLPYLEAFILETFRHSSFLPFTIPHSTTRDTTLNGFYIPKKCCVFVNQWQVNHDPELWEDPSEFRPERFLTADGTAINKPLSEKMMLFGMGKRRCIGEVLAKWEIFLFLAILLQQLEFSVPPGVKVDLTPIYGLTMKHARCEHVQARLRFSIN
experiment: Inhibition of CYP1A2
Format: ADME
quantity measured: log10 of IC50 (log10 of the value in µM)
Record value = log10 of IC50 given in µM.

Some solved cases for reference:
>>> result_value("Cc1c(C)n(C[C@H]2C[C@@H]2C)c2c(OCc3ccc(F)cc3)nncc12")
0.08
>>> result_value("Cc1cccc(C)c1CNc1nc(N2CCNC2=O)cc2c(C)c(C)[nH]c12")
1.34
>>> result_value("Cc1cccc(C)c1CNc1nc(N2CCCC2=O)cc2c(C)c(C)[nH]c12")
1.41
>>> result_value("C=CCn1c(C)c(C)c2cc(-n3ccccc3=O)nc(NCc3c(C)cccc3C)c21")
1.79
>>> result_value("Cc1cccc(C)c1COc1cccn2c(C)c(C)nc12")
-0.15

**Query** Look up and state reported log10 of IC50 for Cc1cccc(C)c1CNc1cccc2c1nc(C)n2C
**Result** 0.32

**Query** Report log10 of IC50 for CCn1c(C)c(C)c2cc(-n3ccccc3=O)nc(NCc3c(C)cccc3C)c21
**Result** 1.81

**Query** Please indicate log10 of IC50 recorded for Cc1cccc(C)c1CNc1nc(N2CCOCC2=O)cc2c(C)c(C)[nH]c12
**Result** 1.54

###

system tested: Cytochrome P450 2C19 (Homo sapiens, UniProt P33261)
Sequence (P33261 whole entry): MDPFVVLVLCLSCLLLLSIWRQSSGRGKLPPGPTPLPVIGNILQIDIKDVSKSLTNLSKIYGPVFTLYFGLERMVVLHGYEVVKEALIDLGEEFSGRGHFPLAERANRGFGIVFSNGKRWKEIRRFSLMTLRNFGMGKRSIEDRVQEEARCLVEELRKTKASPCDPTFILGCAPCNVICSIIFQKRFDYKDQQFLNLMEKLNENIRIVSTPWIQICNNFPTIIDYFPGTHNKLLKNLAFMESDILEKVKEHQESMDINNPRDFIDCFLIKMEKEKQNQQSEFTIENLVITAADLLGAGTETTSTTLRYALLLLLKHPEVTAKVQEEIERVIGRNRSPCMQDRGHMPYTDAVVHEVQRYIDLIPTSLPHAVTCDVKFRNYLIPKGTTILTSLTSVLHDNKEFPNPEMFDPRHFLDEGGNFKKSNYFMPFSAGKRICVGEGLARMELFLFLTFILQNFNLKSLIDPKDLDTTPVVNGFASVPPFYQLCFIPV
Field: label. Allowed values: rule met (IC50 < 6 µM) or rule not met (IC50 >= 6 µM).

>>> label_value("Cc1cccc(C)c1CNc1nc(-n2ccccc2=O)cc2c(C)c(C)n(CCO)c12")
"rule not met"
>>> label_value("Cc1cccc(C)c1CNc1nccn2c(C)c(C)cc12")
"rule met"
>>> label_value("Cc1cccc(C)c1CNc1nc(-n2ccccc2=O)cc2c(C)c(C)[nH]c12")
"rule not met"
>>> label_value("Cc1cccc(C)c1CNc1nccc2c1cc(C)n2C")
"rule not met"
>>> label_value("Cc1cccc(C)c1CNc1nc(N2CCOCC2=O)cc2c(C)c(C)[nH]c12")
"rule not met"
>>> label_value("CCn1c(C)c(C)c2cc(-n3ccccc3=O)nc(NCc3c(C)cccc3C)c21")
"rule not met"
>>> label_value("Cc1cccc(C)c1CNc1nc(-c2ccccc2)cc2c(C)c(C)[nH]c12")
"rule met"
>>> label_value("Cc1cccc(C)c1CNc1nccc2c(C)c(C)[nH]c12")
"rule met"
>>> label_value("Cc1cccc(C)c1CNc1nc(N2CCNC2=O)cc2c(C)c(C)[nH]c12")
"rule not met"
>>> label_value("Cc1cccc(C)c1COc1cccn2c(C)c(C)nc12")
"rule not met"

As a next step, examine the compound that follows.
**Query** I'd appreciate it if you could check whether Cc1c(C)n(C[C@H]2C[C@@H]2C)c2c(OCc3ccc(F)cc3)nncc12 has IC50 smaller than 6 µM.
**Result** rule met

###

experiment: Intrinsic clearance in dog liver microsomes
Assay type: ADME, Canis lupus familiaris, Microsome
The following compounds are shown together with reported CLint scaled values.
Please don't drop the unit; write it after the number.

>>> result_value("Cc1cccc(C)c1CNc1nccc2c(C)c(C)[nH]c12")
"19 mL/min/kg"
>>> result_value("Cc1cccc(C)c1CNc1nccc2c1cc(C)n2C")
"17 mL/min/kg"
>>> result_value("Cc1c(C)n(C[C@H]2C[C@@H]2C)c2c(OCc3ccc(F)cc3)nncc12")
"38 mL/min/kg"

**Query** Please give measured CLint scaled of the following entry: CCc1cccc(C)c1CNc1cc(C(N)=O)cn2c(C)c(C)nc12
**Result** 3 mL/min/kg

**Query** Hello, please tell me recorded CLint scaled for this one: Cc1cccc(C)c1CNc1cc(C(=O)NCCO)cn2c(C)c(C)nc12
**Result** 0.9 mL/min/kg

**Query** Input Cc1cccc(C)c1CNc1nccc2c1nc(C)n2C , output reported CLint scaled.
**Result** 6.5 mL/min/kg

meta.source: ChEMBL document CHEMBL1154377
